Target: T1, human CD70, recombinant, N-terminally biotinylated (residues 39-193) (human, UniProt P32970 39-193, N-terminal biotin)
T1 construct: range 39-193; the same entry is used there; also called biotinylated human CD70; CD70 biotin
T1 sequence (looked up): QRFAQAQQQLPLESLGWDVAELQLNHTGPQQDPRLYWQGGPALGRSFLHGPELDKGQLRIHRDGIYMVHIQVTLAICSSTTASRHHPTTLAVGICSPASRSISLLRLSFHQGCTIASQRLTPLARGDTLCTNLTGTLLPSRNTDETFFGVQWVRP
Test: CD27 blocking ELISA, 3 µM scFv, strep/HRP
strep/HRP values by entry

[
  {
    "BINDER": "47-TC7-III-D10 (scFv, His-tagged) scFv: QVQLVQSGAEVKKPGASVKVSCKASGYTFTSYGISWVRQAPGQGLEWMGWISAYNGNTNYAQKLQGRVTMTTDTSTSTAYMELRSLRSDDTAVYYCARDSSSWYYYYGMDVWGQGTTVTVSSGGSGGSGGSGGSSYELTQPPSVSVSPGQTARISCSGDALPNQYAYWYQQKPGQAPVLVIYQDSERPSGIPERFSGSSSGTTVTLTISGVQAEDEADYYCQSADTYGTSWVFGGGTKLTVL",
    "strep/HRP": 1.55
  },
  {
    "BINDER": "1-TC4-I-C10 (scFv, His-tagged; also called 1867) scFv: EVQLVQSGAEVKKPGESLKISCKGSGYSFTSYWIGWVRQMPGKGLEWMGIIYPGDSDTRYSPSFQGQVTISADKSISTAYLQWSSLKASDTAMYYCAISRTESYVMDVWGQGTTVTVSSGGSGGSGGSGGSQSALTQPRSVSGSPGQSVTISCTGTSSDVGGYNYVSWYQQHPGKAPKLMIYDVTNRPSGVPDRFSASKSDNTATLTVSGVQAEDEADYYCSSYAGSHELFGGGTKLTVL",
    "strep/HRP": 0.075
  },
  {
    "BINDER": "13-TC7-V-H10 (scFv, His-tagged) scFv: QVQLQQWGAGLLKPSETLSLTCAVYGGSFSGYYWSWIRQPPGKGLEWIGEINHSGSTNYNPSLKSRVTISVDTSKNQFSLKLSSVTAADTAVYYCARSRRPYWYFDLWGRGTLVTVSSGGSGGSGGSGGSQSALTQPASVSGSPGQSITISCTGTSSDVGGYNSVSWYRQHPGKAPKLMIYDVTNRPSGVSNRFSGSKSGNTASLTISGLQAEDEADYYCSSSSISATWVFGGGTKLTVL",
    "strep/HRP": 1.38
  }
]
